Can you tell me Human NPR1 Amax (% of ANP) for the items I'm about to list?
- TESTED_ON: human NPR1 (Homo sapiens)
- Construct: host or cells: CHO-K1
- Sequence (P16066 33-1061): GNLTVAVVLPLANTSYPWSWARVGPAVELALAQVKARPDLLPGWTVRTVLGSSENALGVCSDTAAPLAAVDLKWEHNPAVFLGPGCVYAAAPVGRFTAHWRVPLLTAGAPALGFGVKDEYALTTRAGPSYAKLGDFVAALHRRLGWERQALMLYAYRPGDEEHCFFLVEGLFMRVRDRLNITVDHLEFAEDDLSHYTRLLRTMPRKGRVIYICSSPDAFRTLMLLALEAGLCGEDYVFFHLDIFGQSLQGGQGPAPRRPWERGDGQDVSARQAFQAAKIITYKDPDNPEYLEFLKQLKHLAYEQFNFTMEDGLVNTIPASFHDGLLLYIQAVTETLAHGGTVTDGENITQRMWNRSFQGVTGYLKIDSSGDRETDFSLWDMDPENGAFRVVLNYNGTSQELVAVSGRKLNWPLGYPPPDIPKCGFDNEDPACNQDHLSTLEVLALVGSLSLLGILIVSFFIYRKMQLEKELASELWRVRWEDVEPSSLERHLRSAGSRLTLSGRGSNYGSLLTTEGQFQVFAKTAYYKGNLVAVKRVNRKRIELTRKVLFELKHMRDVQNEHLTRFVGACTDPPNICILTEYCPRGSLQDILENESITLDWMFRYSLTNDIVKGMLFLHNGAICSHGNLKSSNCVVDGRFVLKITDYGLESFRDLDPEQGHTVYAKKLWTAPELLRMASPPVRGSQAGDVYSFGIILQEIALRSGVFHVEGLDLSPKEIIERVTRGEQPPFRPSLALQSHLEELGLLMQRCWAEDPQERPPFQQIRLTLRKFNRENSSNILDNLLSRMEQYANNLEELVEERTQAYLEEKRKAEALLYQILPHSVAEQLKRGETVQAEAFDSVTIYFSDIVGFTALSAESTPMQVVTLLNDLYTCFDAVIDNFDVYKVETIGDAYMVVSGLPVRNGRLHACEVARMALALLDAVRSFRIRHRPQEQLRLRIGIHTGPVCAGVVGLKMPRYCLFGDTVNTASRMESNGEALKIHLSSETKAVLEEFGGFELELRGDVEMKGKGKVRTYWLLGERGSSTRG
- PROTOCOL_DESCRIPTION: Cellular cGMP production assay, human NPR1 expressing CHO-K1 cells (CisBio HTRF)
- Type: cell-based
- ASSAY_CONTEXT: maximum cGMP production as percentage of the maximum cGMP produced with ANP

See these solved cases before continuing.
MOLECULE | TESTED_ON | Human NPR1 Amax (% of ANP)
CC[C@H]([C@H]1CC[C@H](C(=O)O)CC1)N(C)c1nc2c(c(N[C@@H](CN3CC4CCC3C4)c3ccccc3)n1)C[C@H](c1ccccc1)CC2 (some centres unmarked) | human NPR1 (Homo sapiens) | 103.913 % of ANP
CC[C@H]([C@H]1CC[C@H](C(=O)O)CC1)N(C)c1nc2c(c(N[C@@H](CN3CCCC3)c3ccccc3)n1)C[C@H](c1ccccc1)CC2 | human NPR1 (Homo sapiens) | 104.657 % of ANP
CC[C@H]([C@H]1CC[C@H](C(=O)O)CC1)N(C)c1nc2c(c(N[C@@H](CN3CCC[C@H](C)C3)c3cnn(C)c3)n1)C[C@H](c1ccccc1F)CC2 | human NPR1 (Homo sapiens) | 106.036 % of ANP

Quick request: Human NPR1 Amax (% of ANP) for each listed item, please.
1. CC[C@H](N(C)c1nc2c(c(N[C@@H](CN3CCC[C@@H](CF)C3)c3cnn(C)c3)n1)C[C@@](C)(c1ccccc1)CC2)C12CC(C(=O)O)(C1)C2
2. CC[C@@H]1CCCCN1C[C@H](Nc1nc(N[C@H](CC)[C@H]2CC[C@H](C(=O)O)CC2)nc2c1C[C@H](c1ccccc1)CC2)c1cnn(C)c1

1: 101.036 % of ANP; 2: 103.654 % of ANP

Quick one: give me Human NPR1 Amax (% of ANP) for each item below, same order please.
1. CC[C@@H](N(C)c1nc2c(c(N[C@@H](CN3C4CCCC3CCC4)c3cnn(C)c3)n1)C[C@](C)(c1ccccc1)CC2)C12CC(C(=O)O)(C1)C2
2. CC[C@H]([C@H]1CC[C@H](C(=O)O)CC1)N(C)c1nc2c(c(N[C@@H](CN3C4CCCC3CCC4)c3cnn(CC)c3)n1)C[C@@H](c1cccc(F)c1)CC2
3. CC[C@H]([C@H]1CC[C@H](C(=O)O)CC1)N(C)c1nc2c(c(N[C@@H](CN3CCCCC3)c3cnn(CC)c3)n1)C[C@H](c1cccc(F)c1)CC2
4. CC[C@@H](N(C)c1nc2c(c(N[C@@H](CN3CCC[C@H](C)C3)c3cnn(CC)c3)n1)C[C@H](c1cccc(F)c1)CC2)C12CC(C(=O)O)(C1)C2
5. CCn1cc([C@H](CN2C3CCCC2CCC3)Nc2nc(N[C@H](C)c3ccc(C(=O)O)cc3)nc3c2C[C@H](c2cccc(F)c2)CC3)cn1
6. CC[C@H]([C@H]1CC[C@H](C(=O)O)CC1)N(C)c1nc2c(c(N[C@@H](CN3CCC[C@@H]4C[C@@H]43)c3cnn(C)c3)n1)C[C@H](c1ccccc1)CC2

1: 92.458 % of ANP; 2: 97.880 % of ANP; 3: 98.135 % of ANP; 4: 99.405 % of ANP; 5: 93.868 % of ANP; 6: 107.75 % of ANP

---

For each of the compounds below, state its AC50.
- TESTED_ON: monkey NPR1 (Macaca fascicularis)
- Sequence (A0A7N9DBT9 entry or part of it): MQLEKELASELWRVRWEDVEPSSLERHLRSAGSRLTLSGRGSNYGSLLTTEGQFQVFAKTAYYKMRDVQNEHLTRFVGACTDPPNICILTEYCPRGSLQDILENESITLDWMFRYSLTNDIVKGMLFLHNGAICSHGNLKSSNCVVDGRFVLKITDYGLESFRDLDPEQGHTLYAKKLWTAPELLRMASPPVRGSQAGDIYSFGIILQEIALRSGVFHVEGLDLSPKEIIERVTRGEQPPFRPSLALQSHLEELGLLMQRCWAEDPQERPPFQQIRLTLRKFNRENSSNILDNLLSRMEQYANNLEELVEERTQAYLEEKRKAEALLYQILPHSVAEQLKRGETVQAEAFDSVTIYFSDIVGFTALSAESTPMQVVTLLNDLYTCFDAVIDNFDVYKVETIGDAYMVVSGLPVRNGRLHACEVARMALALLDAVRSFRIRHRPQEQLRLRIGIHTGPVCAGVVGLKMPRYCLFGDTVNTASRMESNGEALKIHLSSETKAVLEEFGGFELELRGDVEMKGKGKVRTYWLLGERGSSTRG
- PROTOCOL_DESCRIPTION: Cellular cGMP production assay, monkey NPR1 expressing CHO-K1 cells (CisBio HTRF)
- Type: cell-based
- ASSAY_CONTEXT: cGMP production, monkey NPR1 CHO-K1 cells, 30 min at 37° C., 12-point dose-response from 30 μM; read-out: Monkey NPR1 AC50
One number for each entry, in nM.

COMPOUND | RECORDED_METRIC | RESULT_VALUE
CC[C@H]([C@H]1CC[C@H](C(=O)O)CC1)N(C)c1nc2c(c(N[C@@H](CN3CCC[C@H](C)C3)c3cnn(C)c3)n1)C[C@](C)(c1ccccc1)CC2 [Compound 7] | AC50 | 50

Report AC50 for each item below.
1. CC[C@H]([C@H]1CC[C@H](C(=O)O)CC1)N(C)c1nc2c(c(N[C@@H](CN3CCCCC3)c3ccc(=O)n(CC)c3)n1)C[C@H](c1ccccc1)CC2 [Compound 148]
2. C[C@H]1CCCN(C[C@H](Nc2nc(N(C)[C@H](C3CC3)[C@H]3CC[C@H](C(=O)O)CC3)nc3c2C[C@H](c2cccc(F)c2)CC3)c2cnn(C)c2)C1 [Compound 47]
3. CC(Nc1nc2c(c(N[C@@H](CN3CCCC3)c3ccccc3)n1)CC(c1ccccc1)CC2)[C@H]1CC[C@H](C(=O)O)CC1 (stereo partly shown) [Compound 158]
4. CC[C@H]([C@H]1CC[C@H](C(=O)O)CC1)N(C)c1nc2c(c(N[C@@H](CN3CCCC[C@H]3CO)c3cnn(CC)c3)n1)C[C@H](c1cccc(F)c1)CC2 [Compound 135]
5. CC[C@H]([C@H]1CC[C@H](C(=O)O)CC1)N(C)c1nc2c(c(N[C@@H](CN3CCCC(C)(F)C3)c3cnn(C)c3)n1)C[C@H](c1ccccc1)CC2 (stereo partly shown) [Compound 144]

1. 834
2. 97
3. 1270
4. 604
5. 873

# per-item lookup of AC50; items listed below
1. CC[C@@H](Nc1nc2c(c(N[C@@H](CN3C4CC5CC(C4)CC3C5)c3cnn(CC)c3)n1)C[C@H](c1ccccc1)CC2)[C@H]1CC[C@H](C(=O)O)CC1 [Compound 38]
2. CC[C@@H](N(C)c1nc2c(c(N[C@H](CN3CCCCCC3)c3cnn(C)c3)n1)C[C@H](c1cccc(F)c1)CC2)C12CC(C(=O)O)(C1)C2 [Compound 4]
3. CC[C@H]([C@H]1CC[C@H](C(=O)O)CC1)N(C)c1nc2c(c(N[C@@H](CN3CCC[C@H](C)C3)c3cnn(C)c3)n1)CN(c1cccc(C#N)c1)CC2 [Compound 174]
4. CC[C@@H](N(C)c1nc2c(c(N[C@@H](CN3CCC[C@H](C)C3)c3cnn(CC)c3)n1)C[C@H](c1cccc(F)c1)CC2)C12CC(C(=O)O)(C1)C2 [Compound 13]

[83, 70, 10, 64]

Below is a list of compounds. For each, state its recorded AC50.
1. CC[C@@H](Nc1nc2c(c(N[C@@H](CN3C[C@H](C)C[C@H](C)C3)c3cnn(C)c3)n1)C[C@H](c1ccccc1)CC2)[C@H]1CC[C@H](C(=O)O)CC1 [Compound 61]
2. CC[C@@H](Nc1nc2c(c(N[C@@H](CN3CCC[C@H](C)C3)c3cnn(C)c3)n1)C[C@](C)(c1cccc(F)c1)CC2)[C@H]1CC[C@H](C(=O)O)CC1 [Compound 2]
3. CC(C)n1cc([C@H](CN2CCCCC2)Nc2nc(N[C@H](C)c3ccc(C(=O)O)cc3)nc3c2C[C@H](c2ccccc2)CC3)cn1 [Compound 171]
4. CC[C@H]([C@H]1CC[C@H](C(=O)O)CC1)N(C)c1nc2c(c(N[C@@H](CN3C4CC5CC(C4)CC3C5)c3cnn(C)c3)n1)C[C@H](c1ccccc1)CC2 [Compound 98]

122
44
2320
179

Respectfully, I request AC50 for each entry included below.
1. CC[C@H]([C@H]1CC[C@H](C(=O)O)CC1)N(C)c1nc2c(c(N[C@@H](CN3CCC[C@@H](C)C3)c3cnn(C)c3)n1)C[C@H](c1ccccc1)CC2 [Compound 125]
2. CC[C@H]([C@H]1CC[C@H](C(=O)O)CC1)N(C)c1nc2c(c(NC(CN3CCC[C@H](C)C3)c3cnn(CF)c3)n1)C[C@H](c1ccccc1)CC2 (stereo partly shown) [Compound 107]
3. CC[C@H]([C@H]1CC[C@H](C(=O)O)CC1)N(C)c1nc2c(c(N[C@@H](CN3CCC4CC4C3)c3cnn(C)c3)n1)C[C@H](c1ccccc1)CC2 (stereo partly shown) [Compound 78]
4. CC[C@@H](Nc1nc2c(c(N[C@@H](CN3CCC[C@H](C)C3)c3cnn(C)c3)n1)C[C@](C)(c1ccccc1F)CC2)[C@H]1CC[C@H](C(=O)O)CC1 [Compound 20]
5. CC[C@H]([C@H]1CC[C@](F)(C(=O)O)CC1)N(C)c1nc2c(c(N[C@H](CN3CCC[C@H](C)C3)c3cnn(C)c3)n1)C[C@H](c1ccccc1)CC2 [Compound 82]
6. CC[C@@H](Nc1nc2c(c(N[C@@H](CN3CCCCC3)c3scnc3C)n1)C[C@H](c1ccccc1)CC2)[C@H]1CC[C@H](C(=O)O)CC1 [Compound 114]
7. CC[C@H]([C@H]1CC[C@H](CC(=O)O)CC1)N(C)c1nc2c(c(N[C@@H](CN3CCC[C@H](C)C3)c3cnn(C)c3)n1)C[C@H](c1ccccc1)CC2 [Compound 67]
8. CC[C@H]([C@H]1CC[C@H](C(=O)O)CC1)N(C)c1nc2c(c(N[C@@H](CN3CCCC[C@@H]3CO)c3cnn(CC)c3)n1)C[C@H](c1cccc(F)c1)CC2 [Compound 104]

[410, 224, 212, 60, 278, 296, 155, 290]
